assay: log P by HPLC on reversed-phase column (EEC directive 79/831 Annex V.A8); assay type: physicochemical; details: HPLC on reversed-phase column (footnote a)

{"compound": "O=C(Nc1ccccc1)c1c([O-])n(Cc2cnc(Cl)s2)c2cccc[n+]12", "log p": 2.73}
{"compound": "CCOCC(=O)c1c([O-])n(Cc2ccc(Cl)nc2)c2cccc(C)[n+]12", "log p": 1.47}
{"compound": "O=C(NC1CC1)c1c([O-])n(Cc2ccc(Cl)nc2)c2c(OC(F)(F)F)ccc[n+]12", "log p": 2.33}
{"compound": "O=C(NC1CC1)c1c([O-])n(Cc2cnc(Cl)s2)c2cc(C(F)(F)F)cc[n+]12", "log p": 2.38}
{"compound": "COCC(=O)c1c([O-])n(Cc2cnc(Cl)s2)c2ccc(Cl)c[n+]12", "log p": 1.69}
{"compound": "CC(C)CNC(=O)c1c([O-])n(Cc2cnc(Cl)s2)c2cccc[n+]12", "log p": 2.29}
{"compound": "O=C(Cn1cccn1)c1c([O-])n(Cc2cncnc2)c2cccc[n+]12", "log p": 0.56}
{"compound": "O=C(Cn1cncn1)c1c([O-])n(Cc2cnc(Cl)s2)c2cccc[n+]12", "log p": 1.1}
{"compound": "C[S+]([O-])CC(=O)c1c([O-])n(Cc2cnc(Cl)s2)c2cccc[n+]12 (stereo not drawn)", "log p": 1.08}
{"compound": "COC(=O)c1c([O-])n(Cc2cnc(Cl)s2)c2cccc(Cl)[n+]12", "log p": 1.32}
{"compound": "COc1cnn(CC(=O)c2c([O-])n(Cc3cnc(Cl)s3)c3c(C)ccc[n+]23)c1", "log p": 1.75}
{"compound": "COC(=O)c1c([O-])n(Cc2ccc(Cl)nc2)c2c(SC)ccc[n+]12", "log p": 1.64}

---

experiment: log P by HPLC on reversed-phase column (EEC directive 79/831 Annex V.A8); assay type: physicochemical; conditions: HPLC on reversed-phase column

{"compound": "CCCNC(=O)c1c([O-])n(C(C)c2ccc(Cl)nc2)c2cccc[n+]12 (stereo not drawn)", "log p a)": 2.02}
{"compound": "CSc1ccc[n+]2c(C(=O)NC3CC3)c([O-])n(Cc3ccc(Cl)nc3)c12", "log p a)": 2.05}
{"compound": "Cc1cnc(Cn2c([O-])c(C(=O)Nc3ccccc3)[n+]3ccccc23)cn1", "log p a)": 2.05}

---

assay: log P by HPLC on reversed-phase column (EEC directive 79/831 Annex V.A8); type: physicochemical; settings: HPLC on reversed-phase column (footnote a)
property_name: log p

{"query_smiles": "O=C(CCl)c1c([O-])n(Cc2ccc(Cl)nc2)c2cccc[n+]12", "property_name": "log p", "numeric_result": 1.62}
{"query_smiles": "COCC(=O)c1c([O-])n(Cc2cnc(OC)s2)c2cc(Cl)cc[n+]12", "property_name": "log p", "numeric_result": 1.51}
{"query_smiles": "O=C(NCc1ccc(Cl)cc1)c1c([O-])n(Cc2cnc(Cl)s2)c2cccc[n+]12", "property_name": "log p", "numeric_result": 2.86}
{"query_smiles": "N#Cc1cnn(CC(=O)c2c([O-])n(Cc3cncnc3)c3cccc[n+]23)c1", "property_name": "log p", "numeric_result": 0.73}
{"query_smiles": "O=C(CCl)c1c([O-])n(Cc2ccc(Cl)nc2)c2c(Cl)ccc[n+]12", "property_name": "log p", "numeric_result": 1.99}
{"query_smiles": "O=C(CCl)c1c([O-])n(Cc2ccc(Cl)nc2)c2c(F)ccc[n+]12", "property_name": "log p", "numeric_result": 1.81}
{"query_smiles": "Cc1ccc[n+]2c(C(=O)NCc3ccc(Cl)cc3)c([O-])n(Cc3ccc(Cl)nc3)c12", "property_name": "log p", "numeric_result": 2.92}
{"query_smiles": "COCC(=O)c1c([O-])n(Cc2ccc(Cl)nc2)c2cccc(C)[n+]12", "property_name": "log p", "numeric_result": 1.33}
{"query_smiles": "COCC(=O)c1c([O-])n(Cc2ccc(Cl)nc2)c2c(C)ccc[n+]12", "property_name": "log p", "numeric_result": 1.38}
{"query_smiles": "Cc1ccc2n(Cc3cnc(Cl)s3)c([O-])c(C(=O)CCl)[n+]2c1", "property_name": "log p", "numeric_result": 1.99}
{"query_smiles": "COCC(=O)c1c([O-])n(Cc2cnc(Cl)s2)c2cc(Cl)cc[n+]12", "property_name": "log p", "numeric_result": 1.90}
